Values of pIC50 reported for Non-receptor tyrosine-protein kinase TYK2 (Homo sapiens, UniProt P29597) appear below.
pIC50: −log10 of the molar value.
Reported endpoint: pIC50

[A] CN(C)c1cccc(Nc2nc(N)n(C(=O)c3c(F)cccc3F)n2)c1
[B] CCOC(=O)c1cccc(Nc2nc(N)n(C(=O)c3ccccc3F)n2)c1
[C] CCOC(=O)c1cccc(Nc2nc(N)n(C(=O)c3c(F)cccc3F)n2)c1
[D] Nc1nc(Nc2ccccc2)nn1C(=O)c1c(F)cccc1F
Challenge: Quick one: which order do the items above go in by pIC50, smallest to largest? Field: ranking. Enter the labels in the order requested.
Response given: B, C, D, A
